# target_or_system: Aldo-keto reductase family 1 member B10 (Homo sapiens)
# Sequence (O60218 whole entry): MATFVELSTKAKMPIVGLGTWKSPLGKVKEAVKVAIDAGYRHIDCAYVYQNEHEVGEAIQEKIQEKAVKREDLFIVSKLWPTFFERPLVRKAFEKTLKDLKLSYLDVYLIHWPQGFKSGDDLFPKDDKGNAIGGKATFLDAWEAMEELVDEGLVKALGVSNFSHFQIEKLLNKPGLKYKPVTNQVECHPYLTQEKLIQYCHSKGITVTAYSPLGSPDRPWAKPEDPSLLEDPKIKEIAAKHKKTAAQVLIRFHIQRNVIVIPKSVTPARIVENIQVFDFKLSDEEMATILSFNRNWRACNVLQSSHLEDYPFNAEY
# protocol: Inhibition of recombinant N-His6-tagged AKR1B10 expressed in Escherichia coli BL21 cells using pyridine-3-aldehyde as substrate by spectrophotometry
pIC50: −log10 of the molar value.
measurement_type: pIC50

Previously resolved entries follow.
O=C(O)Cn1c2c(c3ccccc31)CCN(Cc1ccccc1)C2=S 5.29
O=C(O)Cn1c2c(c3cc(O)ccc31)CCN(Cc1ccccc1)C2=S 5.72
O=C(O)Cn1c2c(c3cc(F)ccc31)CCN(Cc1ccccc1)C2=S 5.48
COc1ccc2c(c1)c1c(n2CC(=O)O)C(=S)N(Cc2ccccc2)CC1 5.54

1 = O=C(O)Cn1c2c(c3cc(Cl)ccc31)CCN(Cc1ccccc1)C2=S
2 = CC(C)c1ccc2c(c1)c1c(n2CC(=O)O)C(=S)N(Cc2ccccc2)CC1
3 = O=C(O)Cn1c2c(c3cc(F)ccc31)CCN(Cc1ccc(Br)cc1F)C2=S
query: Could you please sort these 3 entries by pIC50 from high to low? Put the labels in the requested order and list them out.
result: 3, 1, 2
